Recorded values, source PubChem BioAssay (NCI).

System: RXF 393 renal
Assay info: NCI-60 one-dose screen, 48 h (100 = growth as untreated, 0 = no growth, -100 = all killed)
Test settings: 10 µM unless noted
Method: Cells are grown in 96 well plates and exposed to the test compound for 48 hours. Compounds are tested at a single concentration, which is 10^-5 M for most compounds. The reported endpoint is percent growth (GI% or GIPRCNT), where numbers from 0 - 100% represent growth inhibition, and numbers from -100% - 0 represent cell death. For example, a value of 40 represents 60% growth inhibition. A value of 0 means no net growth occurred over the course of the experiment. […]
This is part of a sample that, as a whole, favours compounds with a hit. Of some 83,000 tested, about 20% had one in any assay.
I'd appreciate it if you could supply growth values for the items below.
Give bare numbers, in %.

Worked cases, answers included:
>  <Compound>
COC(=O)/C=C1/SC(=Nc2ccc(C)cc2)N(CCc2c[nH]c3ccc(O)cc23)C1=O

>  <Observable>
growth

>  <Meas value>
47.7

$$$$
>  <Compound>
C1=C(N2CCCC2)CCC1

>  <Observable>
growth

>  <Meas value>
93.1

$$$$
>  <Compound>
O=c1oc2ccc([N+](=O)[O-])cc2cc1Br

>  <Observable>
growth

>  <Meas value>
108

$$$$

Report growth for every entry below.
1. CCOC(=O)c1ccc2[nH]c(O)c(C(=Nc3ccc(N(C)C(=O)CN4CCN(C)CC4)cc3)c3ccccc3)c2c1
2. CN1CCN(c2ccc(NC(=O)c3nc4ccc5[nH]ncc5c4c4c3CCCC4)cc2C(F)(F)F)CC1
3. OCCCC1CCN(C(Cc2ccccc2)c2ccccc2)CC1 (stereo not given)
4. COC1C[C@H](O[C@@H]2C[C@H](O[C@@H]3C[C@H](O[C@@H]4C(=O)c5c(cc6cc(O[C@H]7C[C@@H](O[C@H]8C[C@@H](O)[C@H](O)C(C)O8)[C@H](O)C(C)O7)c(C)c(O)c6c5O)C[C@H]4C(OC)C(=O)[C@@H](O)[C@@H](C)O)OC(C)[C@H]3O)OC(C)[C@@H]2O)OC(C)[C@@H]1O (stereo not given in full)
5. CN(C)CCCn1c2c(c3ncccc3c1=O)C(=O)c1ccccc1-2

1. -97.7
2. 72.3
3. 111
4. -50.9
5. 57.3

---

System: UACC-62 melanoma
Assay info: NCI-60 one-dose screen, 48 h (100 = growth as untreated, 0 = no growth, -100 = all killed)
Test settings: 10 µM unless noted
About 83,000 compounds went through this panel and 20% of them were active in at least one assay; those are over-represented in the sample as a whole. The source made the active and inactive calls. How the source made its calls: active means growth percent below 10; inactive means the rest.
I'd appreciate it if you could supply growth values for the items below.

Worked cases, answers included:
>  <Molecule>
O=C1COCCN1c1ccc(Nc2nc(Cl)nc(OCc3cn(Cc4ccccc4)nn3)n2)cc1

>  <Test target>
UACC-62 melanoma

>  <growth>
92.2% (inactive)

$$$$
>  <Molecule>
COc1ccc(C(=O)Nc2cccc(C3CC(=O)c4c(cc(OC)c(OC)c4OC)O3)c2)cc1 (configuration not stated)

>  <Test target>
UACC-62 melanoma

>  <growth>
25.5% (inactive)

$$$$
>  <Molecule>
Clc1ccc(Nc2nnc(COc3ccccc3)c3ccccc23)cc1

>  <Test target>
UACC-62 melanoma

>  <growth>
-27.7% (active)

$$$$
>  <Molecule>
C=CCn1c(SCC(=O)NCc2cc(C)c(O)c(C)c2)nc2ccc(Cl)cc2c1=O

>  <Test target>
UACC-62 melanoma

>  <growth>
81.9% (inactive)

$$$$

Report growth for every entry below.
1. S=C(Nc1ccc(-c2nc(N3CCOCC3)c3cccn3n2)cc1)Nc1cccnc1
2. C=C1C(=O)O[C@H]2[C@H]1CC/C(COC(=O)NCc1ccc(Cn3c(=O)sn(CCI)c3=O)cc1)=C\CC[C@@]1(C)O[C@@H]21
3. Oc1ccc(CCn2c(O)c(/C=C3\CN=c4ccccc4=N3)sc2=S)cc1
4. CN[C@]12CC3(C=CC(=O)C=C3)O[C@@]1(Cc1ccc(OC)cc1)N(C)C(=O)N2

["25.4% (inactive)", "65.4% (inactive)", "58% (inactive)", "-43% (active)"]

Report growth for every entry below.
1. CCn1cc(C(=O)N/N=C/c2cccs2)c(=O)c2cc(F)c(N3CCNC(C)C3)c(F)c21 (configuration not stated)
2. CC(=O)c1cc(O)c2ccccc2c1O
3. Cc1oc(-c2ccc(Cl)cc2)nc1/C=C/C(=O)c1ccccc1
4. Oc1ccc(CN2CCC(N3CCCCC3)CC2)c2cccnc12
5. Cc1ccc2c(n1)C(=O)c1[nH]c3ccccc3c1C2=O
6. CC(C)(C)n1cc(-c2ccnc(NCCNS(=O)(=O)c3cccc4ccccc34)c2)c(-c2cccc(F)c2)n1
7. CCC(=C(c1ccc(OCCN2CCCC2)cc1)c1ccc(OCCN2CCCC2)cc1)c1ccc(Cl)cc1

96.5% (inactive)
101% (inactive)
87.5% (inactive)
14.9% (inactive)
-64.2% (active)
8% (active)
-46.9% (active)

Report growth for every entry below.
1. O=C1c2c(c3c4ccc(Br)cc4oc3c3[nH]c4ccccc4c23)C(=O)N1O
2. CS(=O)(=O)c1cccc(-c2c(-c3cccc(OS(N)(=O)=O)c3)nc3sccn23)c1
3. c1ccc(CNc2c3ccccc3nc3ccccc23)cc1
4. COc1ccc(C/C(C)=C(/c2ccc(OCCN3CCCCC3)cc2)c2ccc(OC(=O)NCc3ccccc3)cc2)cc1
5. CC(C)CCNC(=O)Cn1cccc(NC(=O)OCc2ccccc2)c1=O
6. CCOC(=O)c1c(NC(=O)c2ccc(C(C)C)cc2)sc2c(CN(C)C)c(O)ccc12

["-2.55% (active)", "94% (inactive)", "61% (inactive)", "-92.9% (active)", "111% (inactive)", "53.8% (inactive)"]

Report growth for every entry below.
1. O=C1c2cc(Cl)ccc2S(=O)(=O)c2c(NCCCNCCO)nc3ccccc3c21
2. Cc1cnc(C(=O)NNc2nc3sc4c(c3c(=O)n2C)C(C)CCC4)cn1 (configuration not stated)
3. C=C(C)[C@@H]1CC[C@]2(C(=O)NCC#CCN3CCN(C)CC3)CC[C@]3(C)[C@H](CC[C@@H]4[C@@](C)(CCC#N)[C@H](C(=C)C)CC[C@]43C)[C@@H]12
4. COC(C(=O)[C@@H](O)[C@@H](C)O)[C@@H]1Cc2cc3cc(O[C@H]4C[C@@H](O[C@H]5C[C@@H](O)[C@H](O)C(C)O5)[C@H](O)C(C)O4)c(C)c(O)c3c(O)c2C(=O)[C@H]1O[C@H]1C[C@@H](O[C@H]2C[C@@H](O[C@H]3C[C@@H](O)[C@H](OC)C(C)O3)[C@@H](O)C(C)O2)[C@H](O)C(C)O1 (some centres not stated)
5. O=c1oc2ccccc2cc1C1=NN=C(SCc2ccccc2)SC1
6. Cc1ccc(-c2nc3nc(-c4ccc(F)cc4)nc(N4CCNCC4)c3o2)cc1

["2.05% (active)", "-20.8% (active)", "-8.49% (active)", "-35.4% (active)", "101% (inactive)", "91.1% (inactive)"]
